# target: TNF-α (Homo sapiens, UniProt P01375)
# Construct: Human TNF-α recombinant protein (Peprotech)
# Sequence (P01375 77-233): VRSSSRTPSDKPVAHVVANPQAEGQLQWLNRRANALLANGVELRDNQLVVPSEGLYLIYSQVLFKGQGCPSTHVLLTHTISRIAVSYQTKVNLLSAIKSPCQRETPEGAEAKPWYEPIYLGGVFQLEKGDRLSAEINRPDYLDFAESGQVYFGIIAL
# method: SPR (Biacore T200, hTNF-α immobilized on CM5); BLI gave KD […]; TNF-α-TNFR1 ELISA IC50 […]

# compound, Kd
measured = [
    ("Cc1cc(O)c2c(c1)C(=O)c1cc(O)cc(O)c1C2=O [emodin, 1,3,8-trihydroxy-6-methylanthraquinone]", "~26.5 µM"),
]
